MEASURED_ON: Recombinant human PDK1 enzyme (aa 52-556) (Homo sapiens (Human))
Sequence (O15530 52-556): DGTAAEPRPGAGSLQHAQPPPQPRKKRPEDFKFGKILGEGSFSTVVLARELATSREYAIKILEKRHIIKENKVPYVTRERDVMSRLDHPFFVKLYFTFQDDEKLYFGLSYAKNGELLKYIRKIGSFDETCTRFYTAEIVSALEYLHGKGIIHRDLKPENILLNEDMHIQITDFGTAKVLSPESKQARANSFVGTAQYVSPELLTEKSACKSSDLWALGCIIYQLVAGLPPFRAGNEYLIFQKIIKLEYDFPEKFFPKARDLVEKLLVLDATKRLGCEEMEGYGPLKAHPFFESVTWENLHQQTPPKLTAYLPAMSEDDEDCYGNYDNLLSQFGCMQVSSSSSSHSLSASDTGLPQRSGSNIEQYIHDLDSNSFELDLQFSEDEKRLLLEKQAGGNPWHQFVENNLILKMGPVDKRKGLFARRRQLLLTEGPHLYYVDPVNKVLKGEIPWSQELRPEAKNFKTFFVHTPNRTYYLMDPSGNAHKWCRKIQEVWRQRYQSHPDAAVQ
TEST_SUMMARY: PDK1 kinase assay
Format: biochemical
MEASUREMENT_CONDITIONS: in vitro kinase assay, His6-PDK1 (aa 52-556), PDKtide, P33-ATP
Description: The activity of the compounds according to the invention on the kinase PDK1 which inhibits the signal transduction pathway is determined in an in vitro kinase assay with recombinantly prepared protein: Recombinant human PDK1 enzyme (aa 52-556) linked at its N-terminal end to His6 is isolated from baculovirus-infected insect cells. […] The reaction is started by adding the ATP solution and the mixture is incubated for 90 min at RT. […] The measured data are evaluated using Graphpad Prism software.
Recorded measurements of IC50, one per entry
REPORTED_METRIC: IC50

COMPOUND | RESULT_VALUE
O=C(NCC#Cc1ccc2nccc(OCC3CCNC3)c2c1)c1cncn(Cc2ccc(F)c(F)c2)c1=O (stereo not drawn) | 3 nM
O=C(NCC#Cc1ccc2ncc(N[C@H]3CC[C@H](O)CC3)nc2c1)c1cncn(Cc2ccc(F)c(F)c2)c1=O | 21 nM
CNCCCN(C)c1ncnc2ccc(C#CCNC(=O)c3cccn(Cc4ccc(F)c(F)c4)c3=O)cc12 | 110 nM

====

IC50 listing for selected molecules.
MEASURED_ON: Recombinant human PDK1 enzyme (aa 52-556) (Homo sapiens (Human))
TEST_SUMMARY: PDK1 kinase assay
MEASUREMENT_CONDITIONS: in vitro kinase assay, His6-PDK1 (aa 52-556), PDKtide, P33-ATP

MOLECULE | IC50 / nM
Cc1ncnc2ccc(C#CCNC(=O)c3cncn(Cc4ccc(F)c(F)c4)c3=O)cc12 | 98
CCOc1ccnc2ccc(C#CCNC(=O)c3cccn(C(CO)c4ccc(F)c(F)c4)c3=O)cc12 (stereo not drawn) | 11
CC(C)Nc1c([N+](=O)[O-])cnc2ccc(C#CCNC(=O)c3cncn(Cc4ccc(F)c(F)c4)c3=O)cc12 | 116
O=C(NCC#Cc1ccc2ncc(NC3CCN(C4COC4)CC3)nc2c1)c1ccnn(Cc2ccc(F)c(F)c2)c1=O | 8
O=C(NCC#Cc1ccc2ncccc2c1)c1cncn(Cc2ccc(F)c(F)c2)c1=O | 132
CCNc1c([N+](=O)[O-])cnc2ccc(C#CCNC(=O)c3cncn(Cc4ccc(F)c(F)c4)c3=O)cc12 | 86

====

MEASURED_ON: Recombinant human PDK1 enzyme (aa 52-556) (Homo sapiens (Human))
TEST_SUMMARY: PDK1 kinase assay
MEASUREMENT_CONDITIONS: in vitro kinase assay, His6-PDK1 (aa 52-556), PDKtide, P33-ATP
pIC50: −log10 of the molar value.
// reported pIC50 for each item listed
REPORTED_METRIC: pIC50

MOLECULE | RESULT_VALUE
CN1CCC(Nc2cnc3ccc(C#CCNC(=O)c4cncn(Cc5ccc(F)c(F)c5)c4=O)cc3n2)C1 (stereo not shown) | 7.48
C[C@@H](c1ccc(F)c(F)c1)n1cccc(C(=O)NCC#Cc2ccc3ncc(NC4CCN(C5COC5)CC4)nc3c2)c1=O | 8.10
CCOc1ccnc2ccc(C#CCNC(=O)c3cccn(Cc4ccc(F)c(F)c4)c3=O)cc12 | 7.26
CN(C)C1CCN(c2ncnc3ccc(C#CCNC(=O)c4cccn(Cc5ccc(F)c(F)c5)c4=O)cc23)CC1 | 7.13
COCCN1CCC(Nc2cnc3ccc(C#CCNC(=O)c4cccn(Cc5ccc(F)c(F)c5)c4=O)cc3c2)CC1 | 8.10
O=C(NCC#Cc1ccc2ncc(-c3ccccc3)cc2c1)c1cncn(Cc2ccc(F)c(F)c2)c1=O | 7.18
CC(c1cc(F)c(F)c(F)c1)n1cccc(C(=O)NCC#Cc2ccc3nccc(OC[C@H]4CCN(C)C4)c3c2)c1=O (stereo partly shown) | 8.40
CN(Cc1ccccc1)c1ncnc2ccc(C#CCNC(=O)c3cncn(Cc4ccc(F)c(F)c4)c3=O)cc12 | 7.80
CN1CCN(C(=O)c2cnc3ccc(C#CCNC(=O)c4cncn(Cc5ccc(F)c(F)c5)c4=O)cc3c2)CC1 | 6.39
O=C(NCC#Cc1ccc2ncnc(NCCc3cccs3)c2c1)c1cncn(Cc2ccc(F)c(F)c2)c1=O | 6.79
O=C(NCC#Cc1ccc2ncc(N[C@H]3CC[C@H](N4CCOCC4)CC3)nc2c1)c1ccnn(Cc2ccc(F)c(F)c2)c1=O | 8.15
CN1CC[C@H](COc2ccnc3ccc(C#CCNC(=O)c4cccn(Cc5cc(F)c(F)c(F)c5)c4=O)cc23)C1 | 8.70
O=C(NCC#Cc1ccc2ncc(CC3CCNCC3)nc2c1)c1cncn(Cc2ccc(F)c(F)c2)c1=O | 6.18
CNc1c(C#N)cnc2ccc(C#CCNC(=O)c3cccn(Cc4ccc(F)c(F)c4)c3=O)cc12 | 7.34
CCN(CC)CCCOc1ccnc2ccc(C#CCNC(=O)c3cncn(Cc4ccc(F)c(F)c4)c3=O)cc12 | 8.22
O=C(NCC#Cc1ccc2ncc(NC3CC(N4CCCC4)C3)nc2c1)c1cncn(Cc2ccc(F)c(F)c2)c1=O (stereo not shown) | 7.39
N[C@H]1CC[C@H](Nc2cnc3ccc(C#CCNC(=O)c4cncn(Cc5ccc(F)c(F)c5)c4=O)cc3n2)CC1 | 8.52
Cc1c(C#CCNC(=O)c2cncn(Cc3ccc(F)c(F)c3)c2=O)ccc2ncc(C(=O)O)cc12 | 7.21
O=C(NCC#Cc1ccc2ncnc(NCCc3ccccn3)c2c1)c1cncn(Cc2ccc(F)c(F)c2)c1=O | 6.98
CC(N)CCOc1ccnc2ccc(C#CCNC(=O)c3cccn(Cc4ccc(F)c(F)c4)c3=O)cc12 (stereo not shown) | 7.49
CN(c1ncnc2ccc(C#CCNC(=O)c3cncn(Cc4ccc(F)c(F)c4)c3=O)cc12)C1CC1 | 7.89
O=C(NCC#Cc1ccc2ncc(N[C@H]3CC[C@H](N4CCOCC4)CC3)nc2c1)c1cncn(Cc2ccc(F)c(F)c2)c1=O | 8.70
CC(C)N1CCC[C@@H](COc2ccnc3ccc(C#CCNC(=O)c4cccn(Cc5ccc(F)c(F)c5)c4=O)cc23)C1 | 8.52
CN1CCC[C@@H](COc2ccnc3ccc(C#CCNC(=O)c4cccn(C(CO)c5cc(F)c(F)c(F)c5)c4=O)cc23)C1 (stereo partly shown) | 8.70
O=C(NCC#Cc1ccc2ncnc(N3CCCC3)c2c1)c1cccn(Cc2ccc(F)c(F)c2)c1=O | 7.28

====

MEASURED_ON: Recombinant human PDK1 enzyme (aa 52-556) (Homo sapiens (Human))
TEST_SUMMARY: PDK1 kinase assay
MEASUREMENT_CONDITIONS: in vitro kinase assay, His6-PDK1 (aa 52-556), PDKtide, P33-ATP
pIC50: −log10 of the molar value.
Use 7 as the dividing line for pIC50, with the line itself on the True side and lower values as False.

COMPOUND | ASSIGNED_CATEGORY
CNc1cnc2ccc(C#CCNC(=O)c3cncn(Cc4ccc(F)c(F)c4)c3=O)cc2n1 | True
O=C(NCC#Cc1ccc2ncc(NC3CCCCC3)nc2c1)c1cncn(Cc2ccc(F)c(F)c2)c1=O | False
CN(C)CCCCOc1ccnc2ccc(C#CCNC(=O)c3cncn(Cc4ccc(F)c(F)c4)c3=O)cc12 | True
CN(C)c1ncnc2ccc(C#CCNC(=O)c3cncn(Cc4ccc(F)c(F)c4)c3=O)cc12 | True
CN(C)CC(C)(C)CNc1cnc2ccc(C#CCNC(=O)c3cncn(Cc4ccc(F)c(F)c4)c3=O)cc2n1 | True
NC(=O)CNc1ncnc2ccc(C#CCNC(=O)c3cccn(Cc4ccc(F)c(F)c4)c3=O)cc12 | True
CN(Cc1cnn(-c2ccc(F)cc2)c1)c1ncnc2ccc(C#CCNC(=O)c3cccn(Cc4ccc(F)c(F)c4)c3=O)cc12 | True
CONc1ncnc2ccc(C#CCNC(=O)c3cncn(Cc4ccc(F)c(F)c4)c3=O)cc12 | True
O=C(NCC#Cc1ccc2ncc(NC3CCN(C4COC4)CC3)nc2c1)c1cccn([C@H](CO)c2cccc(F)c2)c1=O | True
CCN(CC)c1ncnc2ccc(C#CCNC(=O)c3cccn(C(C)c4ccc(F)c(F)c4)c3=O)cc12 (stereo not drawn) | True
CN1CCC(Nc2cnc3ccc(C#CCNC(=O)c4cncn(Cc5ccc(F)c(F)c5)c4=O)cc3n2)CC1 | True
CNc1ncnc2ccc(C#CCNC(=O)c3cncn(Cc4ccccc4F)c3=O)cc12 | False
O=C(NCC#Cc1ccc2nccc(C3=CCCNC3)c2c1)c1cncn(Cc2ccc(F)c(F)c2)c1=O | True
CCNC(=O)c1cnc2ccc(C#CCNC(=O)c3cncn(Cc4ccc(F)c(F)c4)c3=O)cc2c1 | True
CNc1ncnc2ccc(C#CCNC(=O)c3cc(Cl)nn(Cc4ccc(F)c(F)c4)c3=O)cc12 | True
O=C(NCC#Cc1ccc2ncc(NC3CCN(C4COC4)CC3)nc2c1)c1cccn(Cc2ccc(F)c(F)c2)c1=O | True
CC(C)(C)COc1ccnc2ccc(C#CCNC(=O)c3cccn(C(CO)c4ccc(F)c(F)c4)c3=O)cc12 (stereo not drawn) | True
CN(C)[C@H]1CC[C@H](Nc2cnc3ccc(C#CCNC(=O)c4cncn(Cc5ccc(F)c(F)c5)c4=O)cc3n2)CC1 | True
O=C(NCC#Cc1ccc2ncc(N[C@H]3CC[C@H](N4CCN(CC5CC5)CC4)CC3)nc2c1)c1ccnn(Cc2ccc(F)c(F)c2)c1=O | True
CN1CCC(Oc2ccnc3ccc(C#CCNC(=O)c4cccn(Cc5ccc(F)c(F)c5)c4=O)cc23)C1 (stereo not drawn) | False
